# key: entry, value: protein stability index
assay: protein stability index of a GFP-peptide fusion (yeast GPS) (PSI 1-4); higher = more stable; sorted into four equal gates, so the index is relative within each strain; details: san1∆
Just the number, please, no unit after it.

INSERT INTO measurements (residue_string, value) VALUES
  ('EMIDSHIKEASEEVDDL [SNF2]', 2.81),
  ('GVERLIPVGDNTVVGIS [PRE4]', 2.84),
  ('NMGSLLGLCLVIQIVTG [COB]', 2.59),
  ('SVFDATSDPVMHKQLAY [RPN1]', 1.79),
  ('HIHDLEKFSPKSFISKL [SRP54]', 2.14);

-- ask Answer with the recorded protein stability index for the sequence listed here: KNDTKILVLALEDLKDV [PRP8]
-- reply 1.55

-- ask Using known records, supply protein stability index for LSMRFQRETSGMIVISM [SRB8]
-- reply 1.54

-- ask Return protein stability index (reported value) for this sequence: TIERSLIEEEVEQDEGQ [YCS4]
-- reply 3.28

-- ask # return recorded protein stability index for entry VTRFDEKQIEELLDNCI [SRB6]
-- reply 3.21

-- ask Report measured protein stability index; entry is TKLDQVWGSETVASSKV [RPL4A]
-- reply 2.84

-- ask Please look at this sequence and report its protein stability index: KNSSVSSLMNGLGYVFE [SRB5]
-- reply 2.4

----------
We begin with a simple list: items and their reported protein stability index.
experiment: protein stability index of a GFP-peptide fusion (yeast GPS) (PSI 1-4); higher = more stable; sorted into four equal gates, so the index is relative within each strain; settings: ubr1∆
Respond using a number only.

INSERT INTO results (residue_string, reported_metric, value) VALUES
  ('FEKDLMAYFDENLNRNW [BRN1]', 'protein stability index', 3.17),
  ('AETLAEELINAAKGSST [RPS5]', 'protein stability index', 2.09),
  ('IHSLVKQRLDLARQVKL [YIL149C/MLP2]', 'protein stability index', 2.83),
  ('RAKALGIKVTNPKGRLA [RPL32]', 'protein stability index', 3.39),
  ('QTLLQRSEDPAGLGKTN [YGR119C/NUP57]', 'protein stability index', 3.39),
  ('MLVDLNVPWPQNSYADK [RPP1]', 'protein stability index', 1.12),
  ('EIELKKLPKVYKRSIVR [SWI1]', 'protein stability index', 2.91),
  ('KNATDLQQAKLRESEIS [SMC3]', 'protein stability index', 2.97);

-- ask Identify measured protein stability index corresponding to HRDKNKMDMICRNINRK [DIS3]
-- reply 3.33

-- ask Please report protein stability index for the following sequence: DIIMNPHGFPSRMTVGK [RET1]
-- reply 2.71

-- ask Tell us which protein stability index value is on record for LNESRSQHKKILEELDF [SMC3]
-- reply 3.06

-- ask Consider the sequence NSGNSNSNSNQQSTDAD [RPT1] and give its recorded protein stability index.
-- reply 2.64

-- ask For the sequence DWESDLHIHLNQILQTE [YDL116W/NUP84] , give its measured protein stability index value.
-- reply 2.81

-- ask Dear colleague, please send me the reported protein stability index for SGYNQEDSMIMNQSSID [RPB2] when you can.
-- reply 2.84

-- ask Name the recorded protein stability index of the item NYNSTSRSTEKKNDMNT [SIR4] in your answer.
-- reply 2.55

-- ask Please list protein stability index recorded for the sequence NVMLEKIKDNKEKIKNN [RPT5]
-- reply 2.72

-- ask Supply measured protein stability index of RTHFKRMRFPPFDDDEP [PRP8] in your reply.
-- reply 2.77

-- ask Determine its reported protein stability index: YGEAPTSPGFGVSSPGF [RPO21]
-- reply 3.17

-- ask Indicate its recorded protein stability index; the sequence in question is IIRHEKELEPWDLQLQE [SMC4]
-- reply 3.47

-- ask State its protein stability index for this sequence: TKPFENVEKYPTFVEFI [SNU114]
-- reply 2.86
